Data origin, for the record: patent US6846840B2

system: MELANOMA cancer cell lines; conditions: log of concentration causing 50% lethality; arithmetic average of six to eight melanoma cell lines

{"columns": ["COMPOUND", "UNITS OF MEASURE", "Log LC50"],
 "data": [
  ["CC1=C(N2CC2)C(=O)c2[nH]c3c(c2C1=O)CCC3=O [Cyclopent[b]indole 3e]", "moles/liter", "−5.99"],
  ["CC(=O)OCc1[nH]c2c(c1C)C(=O)C(N1CC1)=C(C)C2=O [Indole 1c]", "moles/liter", "−5.64"],
  ["CC1=C(N2CC2)C(=O)c2[nH]c3c(c2C1=O)CCC3O (stereo not shown) [Cyclopent[b]indole 3b]", "moles/liter", "−4.85"],
  ["CC(=O)OC1CCc2c1[nH]c1c2C(=O)C(C)=C(N2CC2)C1=O (stereo not shown) [Cyclopent[b]indole 3c]", "moles/liter", "−4.99"],
  ["COC1CCc2c1[nH]c1c2C(=O)C(C)=C(N2CC2)C1=O (stereo not shown) [Cyclopent[b]indole 3d]", "moles/liter", "−4.92"],
  ["CC(=O)OC1CCc2c3c(n(C(C)=O)c21)C(=O)C(N1CC1)=C(C)C3=O (stereo not shown) [Cyclopent[b]indole 14]", "moles/liter", "−5.06"],
  ["CC1=C(N2CC2)C(=O)c2c([nH]c(C)c2C)C1=O [Indole 1a]", "moles/liter", "−4.42"],
  ["CC1=C(N2CC2)C(=O)c2[nH]c(CO)c(C)c2C1=O [Indole 2b]", "moles/liter", "−4.4"],
  ["CC(=O)OCc1[nH]c2c(c1C)C(=O)C(C)=C(N1CC1)C2=O [Indole 2c]", "moles/liter", "−4.15"],
  ["CC1=C(N2CC2)C(=O)c2c([nH]c(CO)c2C)C1=O [Indole 1b]", "moles/liter", "−5.39"]
]}
